// data source = the NIST ThermoML archive (doi:10.1016/j.tca.2011.02.027)

protocol_description: molar heat capacity at constant pressure
experimental_context: 378.2 K; 101.33 kPa; Liquid; Large sample (1 g) DSC
quantity_kind: molar heat capacity at constant pressure (J/K/mol)
Please state the figure in J/K/mol; there is no need to write the unit.

CCCCn1cc[n+](C)c1C.F[P-](F)(F)(F)(F)F [1-butyl-2,3-dimethylimidazolium hexafluorophosphate] yielded molar heat capacity at constant pressure of 478.9

CCCCn1cc[n+](C)c1.[Br-] [1-butyl-3-methylimidazolium bromide] yielded molar heat capacity at constant pressure of 350.6

CCCCn1cc[n+](C)c1.[Cl-] [1-butyl-3-methylimidazolium chloride] yielded molar heat capacity at constant pressure of 361

CCCCn1cc[n+](C)c1C.F[B-](F)(F)F [1-butyl-2,3-dimethylimidazolium tetrafluoroborate] yielded molar heat capacity at constant pressure of 434.4

====

Recorded molar heat capacity at constant pressure values for a group of compounds are listed next.
protocol_description: molar heat capacity at constant pressure
experimental_context: 363.2 K; 101.33 kPa; Liquid; Large sample (1 g) DSC
Please state the figure in J/K/mol; there is no need to write the unit.

Would you please look over these solved cases?
INSERT INTO measurements (compound, quantity_kind, unit_descriptor, reported_measurement) VALUES
  ('CCCCn1cc[n+](C)c1.[Br-] [1-butyl-3-methylimidazolium bromide]', 'molar heat capacity at constant pressure', 'J/K/mol', 341.1),
  ('CCCCn1cc[n+](C)c1.[Cl-] [1-butyl-3-methylimidazolium chloride]', 'molar heat capacity at constant pressure', 'J/K/mol', 350.6),
  ('CCCCn1cc[n+](C)c1C.F[P-](F)(F)(F)(F)F [1-butyl-2,3-dimethylimidazolium hexafluorophosphate]', 'molar heat capacity at constant pressure', 'J/K/mol', 468);

For the next question, use this compound.
CCCCn1cc[n+](C)c1C.F[B-](F)(F)F [1-butyl-2,3-dimethylimidazolium tetrafluoroborate] yielded molar heat capacity at constant pressure of 423.6

====

Recorded molar heat capacity at constant pressure values for a group of compounds are listed next.
protocol_description: molar heat capacity at constant pressure
experimental_context: 353.2 K; 101.33 kPa; Liquid; Large sample (1 g) DSC
Please state the figure in J/K/mol; there is no need to write the unit.

Would you please look over these solved cases?
INSERT INTO results (compound, reported_measurement) VALUES
  ('CCCCn1cc[n+](C)c1C.F[B-](F)(F)F [1-butyl-2,3-dimethylimidazolium tetrafluoroborate]', 416.5),
  ('CCCCn1cc[n+](C)c1C.F[P-](F)(F)(F)(F)F [1-butyl-2,3-dimethylimidazolium hexafluorophosphate]', 460.1),
  ('CCCCn1cc[n+](C)c1.[Br-] [1-butyl-3-methylimidazolium bromide]', 334.8);

For the next question, use this compound.
CCCCn1cc[n+](C)c1.[Cl-] [1-butyl-3-methylimidazolium chloride] yielded molar heat capacity at constant pressure of 343.3

====

Recorded molar heat capacity at constant pressure values for a group of compounds are listed next.
protocol_description: molar heat capacity at constant pressure
experimental_context: 358.2 K; 101.33 kPa; Liquid; Large sample (1 g) DSC
Please state the figure in J/K/mol; there is no need to write the unit.

Would you please look over these solved cases?
INSERT INTO measurements (compound, quantity_kind, reported_measurement) VALUES
  ('CCCCn1cc[n+](C)c1C.F[P-](F)(F)(F)(F)F [1-butyl-2,3-dimethylimidazolium hexafluorophosphate]', 'molar heat capacity at constant pressure', 464.4),
  ('CCCCn1cc[n+](C)c1.[Cl-] [1-butyl-3-methylimidazolium chloride]', 'molar heat capacity at constant pressure', 347.1),
  ('CCCCn1cc[n+](C)c1C.F[B-](F)(F)F [1-butyl-2,3-dimethylimidazolium tetrafluoroborate]', 'molar heat capacity at constant pressure', 420.2);

CCCCn1cc[n+](C)c1.[Br-] [1-butyl-3-methylimidazolium bromide] yielded molar heat capacity at constant pressure of 338.1

====

protocol_description: molar heat capacity at constant pressure
experimental_context: 383.2 K; 101.33 kPa; Liquid; Large sample (1 g) DSC
quantity_kind: molar heat capacity at constant pressure (J/K/mol)
Please state the figure in J/K/mol; there is no need to write the unit.

Would you please look over these solved cases?
INSERT INTO assay_data (molecule, quantity_kind, unit_descriptor, reported_measurement) VALUES
  ('CCCCn1cc[n+](C)c1C.F[B-](F)(F)F [1-butyl-2,3-dimethylimidazolium tetrafluoroborate]', 'molar heat capacity at constant pressure', 'J/K/mol', 436.3),
  ('CCCCn1cc[n+](C)c1C.F[P-](F)(F)(F)(F)F [1-butyl-2,3-dimethylimidazolium hexafluorophosphate]', 'molar heat capacity at constant pressure', 'J/K/mol', 482.6),
  ('CCCCn1cc[n+](C)c1.[Br-] [1-butyl-3-methylimidazolium bromide]', 'molar heat capacity at constant pressure', 'J/K/mol', 354.1);

CCCCn1cc[n+](C)c1.[Cl-] [1-butyl-3-methylimidazolium chloride] yielded molar heat capacity at constant pressure of 364.3

====

protocol_description: molar heat capacity at constant pressure
experimental_context: 368.2 K; 101.33 kPa; Liquid; Large sample (1 g) DSC
quantity_kind: molar heat capacity at constant pressure (J/K/mol)
Please state the figure in J/K/mol; there is no need to write the unit.

INSERT INTO assay_data (compound, quantity_kind, reported_measurement) VALUES
  ('CCCCn1cc[n+](C)c1C.F[P-](F)(F)(F)(F)F [1-butyl-2,3-dimethylimidazolium hexafluorophosphate]', 'molar heat capacity at constant pressure', 471.6),
  ('CCCCn1cc[n+](C)c1.[Cl-] [1-butyl-3-methylimidazolium chloride]', 'molar heat capacity at constant pressure', 354.3),
  ('CCCCn1cc[n+](C)c1.[Br-] [1-butyl-3-methylimidazolium bromide]', 'molar heat capacity at constant pressure', 344.6);

For the next question, use this compound.
CCCCn1cc[n+](C)c1C.F[B-](F)(F)F [1-butyl-2,3-dimethylimidazolium tetrafluoroborate] yielded molar heat capacity at constant pressure of 427.3

====

experimental_context: Crystal; DTA
quantity_kind: Normal melting temperature (°C)
Please state the figure in °C; there is no need to write the unit.

INSERT INTO assay_data (molecule, reported_measurement) VALUES
  ('CCCCn1cc[n+](C)c1.[Cl-] [1-butyl-3-methylimidazolium chloride]', 57.00),
  ('CCCCn1cc[n+](C)c1C.F[B-](F)(F)F [1-butyl-2,3-dimethylimidazolium tetrafluoroborate]', 32.00),
  ('CCCCn1cc[n+](C)c1C.F[P-](F)(F)(F)(F)F [1-butyl-2,3-dimethylimidazolium hexafluorophosphate]', 38.00);

For the next question, use this molecule.
CCCCn1cc[n+](C)c1.[Br-] [1-butyl-3-methylimidazolium bromide] yielded Normal melting temperature of 73.00

====

protocol_description: molar heat capacity at constant pressure
experimental_context: 373.2 K; 101.33 kPa; Liquid; Large sample (1 g) DSC
Numbers after ± are expanded uncertainties.
quantity_kind: molar heat capacity at constant pressure
Note to self: number, then unit, no commentary.

Would you please look over these solved cases?
INSERT INTO measurements (compound, reported_measurement) VALUES
  ('CCCCn1cc[n+](C)c1C.F[B-](F)(F)F [1-butyl-2,3-dimethylimidazolium tetrafluoroborate]', '430.6 ± 18 J/K/mol'),
  ('CCCCn1cc[n+](C)c1.[Cl-] [1-butyl-3-methylimidazolium chloride]', '357.6 ± 15 J/K/mol'),
  ('CCCCn1cc[n+](C)c1.[Br-] [1-butyl-3-methylimidazolium bromide]', '347.5 ± 15 J/K/mol');

CCCCn1cc[n+](C)c1C.F[P-](F)(F)(F)(F)F [1-butyl-2,3-dimethylimidazolium hexafluorophosphate] yielded molar heat capacity at constant pressure of 475.1 ± 20 J/K/mol
